# measurement.target: Cloned Human Dopamine D3 Receptors (Homo sapiens, UniProt P35462)
# Construct: expressed in transfected cells; membrane homogenate
# Sequence (P35462 whole entry): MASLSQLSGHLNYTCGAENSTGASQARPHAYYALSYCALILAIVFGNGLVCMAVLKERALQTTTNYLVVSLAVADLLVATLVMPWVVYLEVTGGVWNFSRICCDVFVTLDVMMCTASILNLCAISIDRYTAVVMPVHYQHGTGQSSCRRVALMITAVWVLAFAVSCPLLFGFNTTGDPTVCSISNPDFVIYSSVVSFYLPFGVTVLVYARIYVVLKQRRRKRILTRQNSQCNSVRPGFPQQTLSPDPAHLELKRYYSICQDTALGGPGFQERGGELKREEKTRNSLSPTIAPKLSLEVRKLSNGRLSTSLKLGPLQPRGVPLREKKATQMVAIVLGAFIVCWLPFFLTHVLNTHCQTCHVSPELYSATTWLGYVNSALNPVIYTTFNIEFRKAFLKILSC
# experimental.details: [N-Methyl-3H]Spiroperidol binding to cloned human dopamine D3 receptors
# setup.conditions: read-out: d3Ki
reported.metric: pKi
Answers are plain numbers, as −log10 of the molar value.

1) CC[C@H]1CC[C@H](NC(=O)[C@@H]2C[C@H]2CN2CCN(c3cc(C)ccc3C)CC2)CC1: 8.20
2) CC[C@H]1CC[C@H](NC(=O)[C@@H]2C[C@H]2CN2CCCN(c3csc4cc(F)ccc34)CC2)CC1: 8.91

// each listed compound needs a value for pKi
1. CN(C)c1ccc(CNC(=O)[C@@H]2CCCC[C@H]2CN2CCN(c3csc4cc(C(F)(F)F)ccc34)CC2)cc1
2. C[C@H]1CC[C@H](NC(=O)[C@@H]2C[C@H]2CN2CCN(c3ccc(Cl)c(Cl)c3)CC2)CC1
3. Cc1cccc(CNC(=O)[C@@H]2CCC[C@H]2N2CCN(c3csc4cc(F)ccc34)CC2)c1
4. CC[C@H]1CC[C@H](NC(=O)[C@@H]2C[C@H]2CN2CCN(c3ccc([N+](=O)[O-])cc3)CC2)CC1
5. CCOc1ccccc1N1CCN(C[C@@H]2C[C@H]2C(=O)N[C@H]2CC[C@H](C)CC2)CC1

**A:**
1. 6.99
2. 8.31
3. 7.65
4. 6.71
5. 8.93

---

# measurement.target: CLONED HUMAN ALPHA-1A ADRENERGIC RECEPTORS (α1a) (Homo sapiens, UniProt P35348)
# Construct: expressed in transfected cells; host or cells: CHO cells, G418-resistant clone #7, vector pcDNA3; membranes
# Sequence (P35348 whole entry): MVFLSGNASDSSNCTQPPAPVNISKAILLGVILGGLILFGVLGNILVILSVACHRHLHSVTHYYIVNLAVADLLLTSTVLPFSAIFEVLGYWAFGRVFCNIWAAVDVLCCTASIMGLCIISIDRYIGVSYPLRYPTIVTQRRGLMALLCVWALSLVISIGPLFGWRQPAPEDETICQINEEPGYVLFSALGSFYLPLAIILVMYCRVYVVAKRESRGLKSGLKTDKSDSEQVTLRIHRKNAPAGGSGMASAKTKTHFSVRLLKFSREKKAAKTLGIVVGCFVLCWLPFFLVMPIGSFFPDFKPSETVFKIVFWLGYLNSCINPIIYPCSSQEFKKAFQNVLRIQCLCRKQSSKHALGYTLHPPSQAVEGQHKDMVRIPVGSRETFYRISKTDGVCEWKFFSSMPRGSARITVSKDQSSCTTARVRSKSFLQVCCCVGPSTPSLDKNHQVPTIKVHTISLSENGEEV
# experimental.details: [3H]Prazosin binding to cloned human alpha-1A adrenergic receptors expressed in CHO cells
# setup.conditions: @ 1 uM
reported.metric: halpha1 % I h=human (% Inh @ 1 uM)
Answers are plain numbers, in % Inh @ 1 uM.

// each listed compound needs a value for halpha1 % I h=human
1. CC[C@H]1CC[C@H](NC(=O)CCCN2CCN(c3csc4cc(C(F)(F)F)ccc34)CC2)CC1 [compound 826806]
2. C[C@H]1CC[C@H](NC(=O)CCCN2CCN(c3csc4cc(C(F)(F)F)ccc34)CC2)CC1 [compound 826804]
3. CCOC(=O)[C@H]1CC[C@H](NC(=O)CCCN2CCN(c3csc4cc(C(F)(F)F)ccc34)CC2)CC1 [compound 826805]
4. CCN(C(=O)CCCN1CCN(c2csc3cc(C(F)(F)F)ccc23)CC1)C1CCCCC1 [compound 826809]
5. CC1(C)CCCN(C(=O)CCCN2CCN(c3csc4cc(C(F)(F)F)ccc34)CC2)C1 [compound 826817]

**A:**
1. 10.3
2. 32.8
3. 27.8
4. 30.5
5. 44.4

---

Answer each item with its documented pKi.
# measurement.target: Cloned Human Dopamine D3 Receptors (Homo sapiens)
# Construct: expressed in transfected cells; membrane homogenate
# experimental.details: [N-Methyl-3H]Spiroperidol binding to cloned human dopamine D3 receptors
# setup.conditions: read-out: d3Ki
Give bare numbers, as −log10 of the molar value.

# example entries with known answers
1) CCOC(=O)[C@H]1CC[C@H](NC(=O)[C@@H]2C[C@H]2CN2CCCN(c3csc4cc(F)ccc34)CC2)CC1 [compound 826865]: 8.43
2) O=C(NCc1nc2ccccc2[nH]1)[C@@H]1CCCC[C@@H]1CN1CCN(c2csc3cc(C(F)(F)F)ccc23)CC1 [compound 826102]: 6.68

Now, please, on to the next compound.
**Q:** Would you kindly share the measured pKi for CC[C@H]1CC[C@H](NC(=O)[C@@H]2C[C@H]2CN2CCN(c3ccc(OC)cc3)CC2)CC1 [compound 827233] ?
**A:** 7.56

---

Kindly supply the reported pKi values for the records listed here.
# measurement.target: Cloned Human Dopamine D3 Receptors (Homo sapiens)
# Construct: expressed in transfected cells; membrane homogenate
# experimental.details: [N-Methyl-3H]Spiroperidol binding to cloned human dopamine D3 receptors
# setup.conditions: Table 2; unit inferred; read-out: d3Ki
Give bare numbers, as −log10 of the molar value.

The following molecules have reported results that may help.
1) O=C(NC1CC1)[C@@H]1C[C@H]1CN1CCN(c2csc3cc(C(F)(F)F)ccc23)CC1 [compound 822202]: 8.09
2) CC[C@H]1CC[C@H](NC(=O)[C@@H]2C[C@H]2CN2CCN(c3csc4cc(C(F)(F)F)ccc34)CC2)CC1 [compound 818499]: 7.66
3) O=C(NCc1cccc2ccccc12)[C@@H]1C[C@H]1CN1CCN(c2csc3cc(C(F)(F)F)ccc23)CC1 [compound 826075]: 7.25

**Q:** pKi for CC[C@H]1CC[C@H](NC(=O)[C@@H]2C[C@H]2CN2CCN(c3ccc(OC)cc3OC)CC2)CC1 [compound 817096] ?
**A:** 8.04

---

# measurement.target: Cloned Human Dopamine D3 Receptors (Homo sapiens)
# Construct: expressed in transfected cells; membrane homogenate
# experimental.details: [N-Methyl-3H]Spiroperidol binding to cloned human dopamine D3 receptors
# setup.conditions: read-out: d3Ki
# Experimental: [N-Methyl-^3H]Spiroperidol Binding to Cloned Human Dopamine D3 Receptors […] A 200 µl sample membrane homogenate is added to 200 µl of 1% SDS, vortexed and allowed to stand for 5 min. Aliquots (25, 50 and 100 µl) of this mixture are assayed in duplicate following the standard Bio-Rad DC protein assay protocol (kit catalog number 500-0112) and using reagent S. Absorbance readings are made at 750 nm (note: the most accurate protein OD readings are between 0.1-0.5 units). […]
reported.metric: pKi
Answers are plain numbers, as −log10 of the molar value.

1) O=C(NCc1ccc2c(c1)OCO2)[C@@H]1CCCC[C@@H]1CN1CCN(c2csc3cc(C(F)(F)F)ccc23)CC1 [compound 826115]: 7.14
2) O=C(NC1CCCCCCCC1)[C@@H]1C[C@H]1CN1CCN(c2csc3cc(F)ccc23)CC1 [compound 826668]: 8.41
3) CC[C@H]1CC[C@H](NC(=O)[C@@H]2C[C@H]2CN2CCN(c3cnccn3)CC2)CC1 [compound 827226]: 7.79
4) O=C(NCc1ccccn1)[C@@H]1CCC[C@H]1N1CCN(c2csc3cc(F)ccc23)CC1 [compound 825825]: 6.82
5) CC(C)[C@@H]1CC[C@@H](C)C[C@H]1NC(=O)[C@@H]1C[C@H]1CN1CCN(c2csc3cc(C(F)(F)F)ccc23)CC1 [compound 826891]: 6.58
6) CC[C@H]1CC[C@H](NC(=O)[C@@H]2C[C@H]2CN2CCN(c3cccc(C(F)(F)F)c3)CC2)CC1 [compound 827229]: 8.77

Now for another entry.
**Q:** Bench note: what pKi did COc1cccc(N2CCN(C[C@@H]3C[C@H]3C(=O)N[C@H]3CC[C@H](C)CC3)CC2)c1 [compound 827195] show?
**A:** 8.09

---

# measurement.target: Cloned Human Dopamine D3 Receptors (Homo sapiens)
# Construct: expressed in transfected cells; membrane homogenate
# experimental.details: [N-Methyl-3H]Spiroperidol binding to cloned human dopamine D3 receptors
# setup.conditions: Table 2; unit inferred; read-out: d3Ki
reported.metric: pKi
Numbers only, as −log10 of the molar value.

Completed entries (count: 5):
1. CCC1CCC(NC(=O)C2CC2CN2CCCN(c3ccccn3)CC2)CC1 (stereo not drawn): 7.71
2. C[C@H]1CC[C@H](NC(=O)[C@@H]2C[C@H]2CN2CCN(c3cc(Cl)cc(Cl)c3)CC2)CC1: 9.17
3. CCC1CCC(NC(=O)C2CC2CN2CCN(c3cccc(Cl)c3Cl)CC2)CC1 (stereo not drawn): 9.11
4. CC[C@H]1CC[C@H](NC(=O)[C@@H]2C[C@H]2CN2CCN(c3ncccc3Cl)CC2)CC1: 8.61
5. CC1C(CN2CCN(c3csc4cc(C(F)(F)F)ccc34)CC2)C1C(=O)NCc1ccc(N(C)C)cc1 (stereo not drawn): 6.86

Return reported pKi values for all items listed beneath this line.
1. C[C@H]1CC[C@H](NC(=O)[C@@H]2C[C@H]2CN2CCN(c3csc4cc(C(F)(F)F)ccc34)CC2)CC1 [(-)-817569]
2. CC1[C@@H](CN2CCN(c3csc4cc(C(F)(F)F)ccc34)CC2)[C@@H]1C(=O)NCC1CC1 (stereo partly drawn)
3. O=C(N[C@H]1CC[C@H](C(=O)N2CCCC2)CC1)[C@@H]1C[C@H]1CN1CCN(c2csc3cc(C(F)(F)F)ccc23)CC1
4. CC1C(CN2CCN(c3csc4cc(C(F)(F)F)ccc34)CC2)C1C(=O)NC1CCCCC1 (stereo not drawn)

**A:**
1: 8.58; 2: 6.98; 3: 8.54; 4: 6.89

I have 2 compounds here; please give me pKi for each one.
1. CC1CCC(NC(=O)C2CC2CN2CCCN(c3ccccn3)CC2)CC1 (stereo not drawn)
2. O=C(NCCN1CCOCC1)[C@@H]1C[C@H]1CN1CCN(c2csc3cc(C(F)(F)F)ccc23)CC1

**A:**
7.59
7.35

Report pKi for every entry below.
1. O=C(NCc1ccco1)[C@@H]1C[C@H]1CN1CCN(c2csc3cc(C(F)(F)F)ccc23)CC1
2. CC1CCC(NC(=O)C2CC2CN2CCCN(c3cnccn3)CC2)CC1 (stereo not drawn)
3. CC1CCC(NC(=O)C2CC2CN2CCN(c3ccc(C(F)(F)F)cc3)CC2)CC1 (stereo not drawn) [compound 817039]
4. CCOC(=O)C1CCC(NC(=O)CCCN2CCN(c3csc4cc(F)ccc34)CC2CCCc2ccccc2)CC1 (stereo not drawn)

**A:**
[7.57, 7.09, 7.83, 6.50]

Would you mind giving pKi for every compound in the list below?
1. CCC1CCC(NC(=O)C2CC2CN2CCN(c3ccc(C(F)(F)F)cc3)CC2)CC1 (stereo not drawn) [compound 817043]
2. CCN(C(=O)CCCN1CCN(c2csc3cc(F)ccc23)CC1CCCc1ccccc1)C1CCCCC1 (stereo not drawn)
3. O=C(NCc1ccccn1)[C@@H]1C[C@H]1CN1CCN(c2csc3cc(C(F)(F)F)ccc23)CC1
4. C[C@H]1CC[C@H](NC(=O)[C@H]2C[C@@H]2CN2CCN(c3csc4cc(C(F)(F)F)ccc34)CC2)CC1 [(+)-816589]
5. CCOC(=O)[C@H]1CC[C@H](NC(=O)CCCN2CCN(c3csc4cc(C(F)(F)F)ccc34)CC2CCc2ccccc2)CC1 (stereo partly drawn)
6. Cc1ccc(N2CCN(C[C@@H]3C[C@H]3C(=O)N[C@H]3CC[C@H](C)CC3)CC2)cc1C

**A:**
[8.14, 6.68, 6.76, 5.97, 6.34, 8.27]

Please look at the items below and tell me pKi for each one, in order.
1. CN(C(=O)CCCCN1CCN(c2csc3cc(F)ccc23)CC1)c1ccc(Cl)cc1
2. C[C@@]1(C(=O)NC2CC2)C[C@H]1CN1CCN(c2csc3cc(C(F)(F)F)ccc23)CC1
3. O=C(CCCCN1CCN(c2csc3cc(F)ccc23)CC1)Nc1ccccc1F
4. COc1ccc(N(C)C(=O)CCCN2CCN(c3csc4cc(F)ccc34)CC2)cc1

**A:**
[7.77, 7.13, 8.44, 6.84]

For each of the compounds below, state pKi.
1. CCOC(=O)[C@H]1CC[C@H](NC(=O)[C@@H]2C[C@H]2CN2CCN(c3csc4cc(C(F)(F)F)ccc34)CC2)CC1
2. CCC1CCC(NC(=O)C2CC2CN2CCN(c3cccc4[nH]ccc34)CC2)CC1 (stereo not drawn)
3. O=C(CCCN1CCN(c2csc3cc(F)ccc23)CC1Cc1ccccc1)NC1CCCCC1 (stereo not drawn)
4. CN(C(=O)CCCCN1CCN(c2csc3cc(F)ccc23)CC1)c1ccccc1F

**A:**
1. 7.74
2. 9.12
3. 6.66
4. 7.67

**Q:** Give recorded pKi with Cloned Human Dopamine D3 Receptors (Homo sapiens) for the following compound: CC[C@H]1CC[C@H](NC(=O)[C@@H]2C[C@H]2CN2CCN(c3ccc(Cl)c(Cl)c3)CC2)CC1 [compound 817090]
**A:** 8.66
